- system.under.test: GRK3 (Homo sapiens, UniProt P35626)
- Construct: DNA tag for qPCR (T7 phage fusion or DNA label)
- Sequence (P35626 whole entry, the tested form may be a part): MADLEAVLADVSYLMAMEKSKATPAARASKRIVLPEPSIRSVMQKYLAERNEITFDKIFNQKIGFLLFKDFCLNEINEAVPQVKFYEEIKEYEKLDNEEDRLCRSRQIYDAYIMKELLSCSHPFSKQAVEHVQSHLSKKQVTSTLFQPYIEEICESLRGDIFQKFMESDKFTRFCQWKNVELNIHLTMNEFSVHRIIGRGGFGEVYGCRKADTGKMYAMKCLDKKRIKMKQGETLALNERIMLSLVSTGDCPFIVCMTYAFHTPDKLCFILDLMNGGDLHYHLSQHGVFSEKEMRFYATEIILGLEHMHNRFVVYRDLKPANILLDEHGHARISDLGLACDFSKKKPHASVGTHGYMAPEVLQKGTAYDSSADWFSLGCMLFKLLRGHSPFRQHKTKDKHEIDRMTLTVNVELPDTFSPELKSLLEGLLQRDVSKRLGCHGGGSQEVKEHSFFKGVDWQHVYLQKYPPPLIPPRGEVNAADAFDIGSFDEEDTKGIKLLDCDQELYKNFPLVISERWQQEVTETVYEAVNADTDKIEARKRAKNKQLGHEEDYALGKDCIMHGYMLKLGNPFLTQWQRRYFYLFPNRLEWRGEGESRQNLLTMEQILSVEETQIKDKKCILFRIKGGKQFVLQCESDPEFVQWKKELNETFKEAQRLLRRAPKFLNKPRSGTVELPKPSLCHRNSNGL
- procedure.summary: KINOMEscan KdELECT
observed.property: Kd

**Q:** Consider the compound CC(C)c1ccc(CC(=O)N2CCN(c3ccc(C#N)nn3)CC2)cc1 [PZ-2891] and give its recorded Kd.
**A:** > 30 µM

###

- procedure.summary: Solubility at pH 7.4
observed.property: solubility (µM)
// return numeric value only (unit: µM, not printed)

**Q:** Consider the molecule CC(C)c1ccc(C(=O)CN2CCN(c3ccc(C#N)nn3)CC2)cc1 [PZ-3067] and give its recorded solubility.
**A:** 18

**Q:** Consider the molecule CC(C)c1ccc(CC(=O)N2CCN(c3ccc(C#N)cn3)CC2)cc1 [PZ-2863] and give its recorded solubility.
**A:** 25

**Q:** Consider the molecule CC(C)(C)c1ccc(NC(=O)N2CCN(c3ccc(C#N)cn3)CC2)cc1 [PZ-2789] and give its recorded solubility.
**A:** 1.4

**Q:** Consider the molecule CC(C)c1ccc(CC(=O)N2CCN(c3ccc(C#N)nn3)CC2)cc1 [PZ-2891] and give its recorded solubility.
**A:** 23

###

- procedure.summary: Plasma stability
- Assay type: in vitro ADME
- condition.info: rat, read-out: Plasma Stability T1/2 (converted)
Recorded half-life, one value per entry.

CC(C)c1ccc(C(=O)CN2CCN(c3ccc(C#N)nn3)CC2)cc1; 27 h
CC(C)c1ccc(CC(=O)N2CCN(c3ccc(C#N)nn3)CC2)cc1; > 50 h

Proceed to the following item.
**Q:** Consider the compound CC(C)(C)c1ccc(NC(=O)N2CCN(c3ccc(C#N)cn3)CC2)cc1 and give its recorded half-life.
**A:** > 50 h

###

Recorded fraction unbound, one value per entry.
- procedure.summary: Protein binding
- condition.info: rat

Here's what some known entries look like.
CC(C)c1ccc(CC(=O)N2CCN(c3ccc(C#N)nn3)CC2)cc1; 0.09
CC(C)(C)c1ccc(NC(=O)N2CCN(c3ccc(C#N)cn3)CC2)cc1; 0.02

Proceed to the following item.
**Q:** Consider the compound CC(C)c1ccc(C(=O)CN2CCN(c3ccc(C#N)nn3)CC2)cc1 and give its recorded fraction unbound.
**A:** 0.1

###

- system.under.test: STK35 (Homo sapiens, UniProt Q8TDR2)
- Construct: DNA tag for qPCR (T7 phage fusion or DNA label); purchased DiscoverX KdELECT; host or cells: E. coli BL21-derived (T7 phage) or HEK-293
- Sequence (Q8TDR2 whole entry, the tested form may be a part): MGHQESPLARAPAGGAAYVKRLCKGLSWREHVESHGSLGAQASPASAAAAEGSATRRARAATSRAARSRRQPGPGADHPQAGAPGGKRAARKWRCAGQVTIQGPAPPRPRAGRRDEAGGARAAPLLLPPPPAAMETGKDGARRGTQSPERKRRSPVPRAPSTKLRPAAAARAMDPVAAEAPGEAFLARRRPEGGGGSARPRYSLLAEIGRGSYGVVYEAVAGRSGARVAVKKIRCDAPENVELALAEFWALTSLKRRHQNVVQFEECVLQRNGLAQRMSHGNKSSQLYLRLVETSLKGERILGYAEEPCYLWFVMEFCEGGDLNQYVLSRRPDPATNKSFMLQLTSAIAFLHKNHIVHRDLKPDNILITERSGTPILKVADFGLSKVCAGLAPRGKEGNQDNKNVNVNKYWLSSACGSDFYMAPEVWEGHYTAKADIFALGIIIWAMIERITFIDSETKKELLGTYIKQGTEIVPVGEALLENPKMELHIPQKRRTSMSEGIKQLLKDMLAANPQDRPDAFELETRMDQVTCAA
- procedure.summary: KINOMEscan KdELECT
- Format: binding
- condition.info: STK35
pKd: −log10 of the molar value.
observed.property: pKd

**Q:** Consider the compound CC(C)c1ccc(CC(=O)N2CCN(c3ccc(C#N)nn3)CC2)cc1 and give its recorded pKd.
**A:** < 4.52

###

- procedure.summary: Microsomal stability
- condition.info: rat, microsomes
observed.property: half-life (min)
// return numeric value only (unit: min, not printed)

**Q:** Consider the molecule CC(C)(C)c1ccc(NC(=O)N2CCN(c3ccc(C#N)cn3)CC2)cc1 and give its recorded half-life.
**A:** 30.6

**Q:** Consider the molecule CC(C)c1ccc(C(=O)CN2CCN(c3ccc(C#N)nn3)CC2)cc1 and give its recorded half-life.
**A:** 13.2

###

- procedure.summary: Pharmacokinetics in plasma of male BALB/c mice
- Format: in vivo
- condition.info: mouse, plasma, po, p.o. 10 mg/kg
observed.property: Cmax

**Q:** Consider the compound CC(C)c1ccc(CC(=O)N2CCN(c3ccc(C#N)nn3)CC2)cc1 and give its recorded Cmax.
**A:** 1890 ng/mL

###

- procedure.summary: Pharmacokinetics in plasma of male BALB/c mice
- Assay type: in vivo
- condition.info: mouse, plasma, iv, i.v. 2 mg/kg
observed.property: clearance (mL/min/kg)
// return numeric value only (unit: mL/min/kg, not printed)

**Q:** Consider the compound CC(C)c1ccc(CC(=O)N2CCN(c3ccc(C#N)nn3)CC2)cc1 and give its recorded clearance.
**A:** 54.5

###

- procedure.summary: Pharmacokinetics in plasma of male BALB/c mice
- Assay type: in vivo
- condition.info: mouse, plasma, iv, i.v. 2 mg/kg
observed.property: AUC(0-t) (ng·h/mL)
// return numeric value only (unit: ng·h/mL, not printed)

**Q:** Consider the compound CC(C)c1ccc(CC(=O)N2CCN(c3ccc(C#N)nn3)CC2)cc1 and give its recorded AUC(0-t).
**A:** 609

###

- system.under.test: SIK2 (Homo sapiens, UniProt Q9H0K1)
- Construct: DNA tag for qPCR (T7 phage fusion or DNA label); purchased DiscoverX KdELECT; host or cells: E. coli BL21-derived (T7 phage) or HEK-293
- Sequence (Q9H0K1 whole entry, the tested form may be a part): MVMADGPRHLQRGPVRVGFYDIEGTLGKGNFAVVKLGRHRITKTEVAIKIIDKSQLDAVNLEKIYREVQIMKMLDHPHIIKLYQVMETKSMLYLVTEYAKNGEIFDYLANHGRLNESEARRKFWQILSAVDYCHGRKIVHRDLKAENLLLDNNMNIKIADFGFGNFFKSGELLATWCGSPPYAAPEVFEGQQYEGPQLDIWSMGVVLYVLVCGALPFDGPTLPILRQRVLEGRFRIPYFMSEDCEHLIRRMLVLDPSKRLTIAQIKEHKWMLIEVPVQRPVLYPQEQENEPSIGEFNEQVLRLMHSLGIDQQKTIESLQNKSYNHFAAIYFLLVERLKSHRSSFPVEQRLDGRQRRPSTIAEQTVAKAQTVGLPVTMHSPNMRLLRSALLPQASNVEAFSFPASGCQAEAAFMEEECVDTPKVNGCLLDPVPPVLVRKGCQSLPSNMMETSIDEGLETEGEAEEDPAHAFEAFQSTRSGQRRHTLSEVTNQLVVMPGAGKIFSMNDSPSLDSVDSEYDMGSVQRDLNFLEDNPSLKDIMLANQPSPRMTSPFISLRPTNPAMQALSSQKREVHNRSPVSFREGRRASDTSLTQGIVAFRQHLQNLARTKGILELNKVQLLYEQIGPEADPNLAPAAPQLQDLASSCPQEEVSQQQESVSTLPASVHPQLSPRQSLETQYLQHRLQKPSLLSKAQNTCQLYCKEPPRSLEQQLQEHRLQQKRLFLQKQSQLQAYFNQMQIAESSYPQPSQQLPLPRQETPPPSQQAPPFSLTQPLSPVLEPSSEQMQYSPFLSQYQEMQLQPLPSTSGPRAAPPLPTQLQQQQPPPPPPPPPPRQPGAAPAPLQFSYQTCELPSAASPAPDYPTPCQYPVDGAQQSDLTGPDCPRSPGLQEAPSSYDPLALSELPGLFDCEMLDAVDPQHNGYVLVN
- procedure.summary: KINOMEscan KdELECT
- Format: binding
- condition.info: SIK2
observed.property: Kd

**Q:** Consider the molecule CC(C)c1ccc(CC(=O)N2CCN(c3ccc(C#N)nn3)CC2)cc1 and give its recorded Kd.
**A:** > 30 µM

###

Recorded half-life, one value per entry.
- procedure.summary: Microsomal stability
- condition.info: human, microsomes
// return numeric value only (unit: min, not printed)

CC(C)c1ccc(C(=O)CN2CCN(c3ccc(C#N)nn3)CC2)cc1; 9

Proceed to the following item.
**Q:** Consider the molecule CC(C)(C)c1ccc(NC(=O)N2CCN(c3ccc(C#N)cn3)CC2)cc1 and give its recorded half-life.
**A:** 7.8

###

- procedure.summary: Protein binding
- condition.info: mouse
Recorded fraction unbound, one value per entry.
// keep it numeric: no unit symbol after the value

CC(C)c1ccc(CC(=O)N2CCN(c3ccc(C#N)nn3)CC2)cc1; 0.08

Proceed to the following item.
**Q:** Consider the molecule CC(C)c1ccc(C(=O)CN2CCN(c3ccc(C#N)nn3)CC2)cc1 and give its recorded fraction unbound.
**A:** 0.04

###

- procedure.summary: Plasma stability
- Assay type: in vitro ADME
- condition.info: human, read-out: Plasma Stability T1/2
observed.property: half-life

Here's what some known entries look like.
CC(C)c1ccc(C(=O)CN2CCN(c3ccc(C#N)nn3)CC2)cc1; > 3000 min
CC(C)c1ccc(CC(=O)N2CCN(c3ccc(C#N)nn3)CC2)cc1; > 3000 min

**Q:** Consider the compound CC(C)(C)c1ccc(NC(=O)N2CCN(c3ccc(C#N)cn3)CC2)cc1 and give its recorded half-life.
**A:** > 3000 min

###

Recorded half-life, one value per entry.
- procedure.summary: Microsomal stability
- condition.info: mouse, microsomes
Write the numeric value and follow it with the unit.

CC(C)(C)c1ccc(NC(=O)N2CCN(c3ccc(C#N)cn3)CC2)cc1; 15.6 min

Proceed to the following item.
**Q:** Consider the compound CC(C)c1ccc(C(=O)CN2CCN(c3ccc(C#N)nn3)CC2)cc1 and give its recorded half-life.
**A:** 30.6 min

###

- procedure.summary: Pharmacokinetics in plasma of male BALB/c mice
- Assay type: in vivo
- condition.info: mouse, plasma, po, p.o. 10 mg/kg
- Description: Supplementary Table 2. […] Mean pharmacokinetic parameters of PZ- […] administration to male BALB/c micea. Dose Tmax C0/ Cmaxc AUClast AUCinf T1/2 CL Vss %Fd […] aPharmacokinetics measurements performed by Sai Life Sciences Limited. […] cBack extrapolated concentration for i.v. group. dBioavailability was calculated based on AUClast.
observed.property: AUC(0-t) (ng·h/mL)
// return numeric value only (unit: ng·h/mL, not printed)

**Q:** Consider the compound CC(C)c1ccc(CC(=O)N2CCN(c3ccc(C#N)nn3)CC2)cc1 [PZ-2891] and give its recorded AUC(0-t).
**A:** 1400

###

- procedure.summary: Tissue pantothenate levels in mice
- Format: in vivo
- condition.info: C57Bl6/J, mouse, liver; 200 mg/kg pantothenate by oral gavage, 4 h after last of 5 doses; read-out: calculated intracellular pantothenate concentration in liver
Structures can show the parent of a compound that is named as a salt.
observed.property: concentration at 4 h (µM)
// return numeric value only (unit: µM, not printed)

**Q:** Consider the molecule CC(C)(CO)[C@@H](O)C(=O)NCCC(=O)O [pantothenate, D-pantothenic acid, hemicalcium salt] and give its recorded concentration at 4 h.
**A:** 24.4

###

- procedure.summary: Plasma stability
- Type: in vitro ADME
- condition.info: mouse, read-out: Plasma Stability T1/2
observed.property: half-life

**Q:** Consider the molecule CC(C)c1ccc(C(=O)CN2CCN(c3ccc(C#N)nn3)CC2)cc1 and give its recorded half-life.
**A:** > 50 h

**Q:** Consider the molecule CC(C)c1ccc(CC(=O)N2CCN(c3ccc(C#N)nn3)CC2)cc1 and give its recorded half-life.
**A:** > 50 h

**Q:** Consider the molecule CC(C)(C)c1ccc(NC(=O)N2CCN(c3ccc(C#N)cn3)CC2)cc1 and give its recorded half-life.
**A:** > 50 h

###

- procedure.summary: Pharmacokinetics in plasma of male BALB/c mice
- Type: in vivo
- condition.info: mouse, plasma, iv, i.v. 2 mg/kg
observed.property: AUC(0-inf) (ng·h/mL)
// return numeric value only (unit: ng·h/mL, not printed)

**Q:** Consider the compound CC(C)c1ccc(CC(=O)N2CCN(c3ccc(C#N)nn3)CC2)cc1 and give its recorded AUC(0-inf).
**A:** 611
